Below, each entry is listed alongside its reported MBC.
- Tested on: Escherichia coli
- method: Bactericidal activity against Escherichia coli MTCC 739 incubated for 24 hrs followed by transfer of microbial suspension to Mueller Hinton agar plates and measured after 24 hrs post transfer
- Type: functional
- condition_details: MTCC 739, 24 h
A number alone suffices; assume µg/mL.

Solved entries:
CN1CCN(C(=O)c2nc(-c3ccccc3)c3c(C(F)(F)F)cc(-c4ccccc4)nc3n2)CC1: 31.2
O=C(c1nc(-c2ccccc2)c2c(C(F)(F)F)cc(-c3ccccc3)nc2n1)N1CCN(CCO)CC1: 31.2
O=C(O)c1cn(C2CC2)c2cc(N3CCNCC3)c(F)cc2c1=O: 0.58

Kindly review the next compound as well.
What does the data say about its MBC? Entry: "COc1ccc(-c2nc(C(=O)N3CCN(C)CC3)nc3nc(-c4ccccc4)cc(C(F)(F)F)c23)cc1"
31.2

----------
Below, each entry is listed alongside its reported MFC.
- Test system: Pichia kudriavzevii
- method: Fungicidal activity against Candida krusei MTCC 3020 incubated for 24 hrs followed by transfer of microbial suspension to Sabouraud dextrose agar plates and measured after 24 hrs post transfer
- Assay type: functional
- condition_details: MTCC 3020, 24 h
A number alone suffices; assume µg/mL.

Solved entries:
Clc1ccc(COC(Cn2ccnc2)c2ccc(Cl)cc2Cl)c(Cl)c1 (centres undefined): 15.6
O=C(NCc1ccccc1)c1nc(-c2ccccc2)c2c(C(F)(F)F)cc(-c3ccccc3)nc2n1: 31.2
CCCNC(=O)c1nc(-c2ccccc2)c2c(C(F)(F)F)cc(-c3ccccc3)nc2n1: 31.2

Kindly review the next compound as well.
What does the data say about its MFC? Entry: "O=C(NCCO)c1nc(-c2ccccc2)c2c(C(F)(F)F)cc(-c3ccccc3)nc2n1"
62.5

----------
- Test system: Nakaseomyces glabratus
- method: Fungicidal activity against Candida glabrata MTCC 3019 incubated for 24 hrs followed by transfer of microbial suspension to Sabouraud dextrose agar plates and measured after 24 hrs post transfer
- Assay type: functional
- condition_details: MTCC 3019, 24 h
observed_property: MFC
Answer format: value, then unit.

Solved entries:
COc1ccc(-c2nc(C(=O)N3CCN(C)CC3)nc3nc(-c4ccccc4)cc(C(F)(F)F)c23)cc1: 15.6 µg/mL
O=C(NCc1ccccc1)c1nc(-c2ccccc2)c2c(C(F)(F)F)cc(-c3ccccc3)nc2n1: 31.2 µg/mL
Clc1ccc(COC(Cn2ccnc2)c2ccc(Cl)cc2Cl)c(Cl)c1 (configuration not stated): 7.8 µg/mL

What does the data say about its MFC? Entry: "CCCNC(=O)c1nc(-c2ccccc2)c2c(C(F)(F)F)cc(-c3ccccc3)nc2n1"
15.6 µg/mL

Please answer likewise for "O=C(c1nc(-c2ccccc2)c2c(C(F)(F)F)cc(-c3ccccc3)nc2n1)N1CCN(CCO)CC1"
31.2 µg/mL

Please answer likewise for "O=C(NCCO)c1nc(-c2ccccc2)c2c(C(F)(F)F)cc(-c3ccccc3)nc2n1"
31.2 µg/mL

Please answer likewise for "O=C(c1nc(-c2ccccc2)c2c(C(F)(F)F)cc(-c3ccccc3)nc2n1)N1CCCC1"
31.2 µg/mL

----------
- System: [Candida] aaseri
- method: Antifungal activity against Candida aaseri MTCC 1962 after 24 hrs by well diffusion method
- Assay type: functional
- condition_details: Yamadazyma aaseri, MTCC 1962, 24 h
observed_property: MIC

Solved entries:
COc1ccc(-c2nc(C(=O)N3CCN(C)CC3)nc3nc(-c4ccccc4)cc(C(F)(F)F)c23)cc1: 15.6 µg/mL
O=C(NCCO)c1nc(-c2ccccc2)c2c(C(F)(F)F)cc(-c3ccccc3)nc2n1: 31.2 µg/mL
O=C(c1nc(-c2ccccc2)c2c(C(F)(F)F)cc(-c3ccccc3)nc2n1)N1CCN(CCO)CC1: 31.2 µg/mL

Provide the documented MIC with [Candida] aaseri as the system for Clc1ccc(COC(Cn2ccnc2)c2ccc(Cl)cc2Cl)c(Cl)c1 (stereo not drawn)
7.8 µg/mL

Please answer likewise for "CN1CCN(C(=O)c2nc(-c3ccccc3)c3c(C(F)(F)F)cc(-c4ccccc4)nc3n2)CC1"
7.8 µg/mL

Please answer likewise for "O=C(c1nc(-c2ccccc2)c2c(C(F)(F)F)cc(-c3ccccc3)nc2n1)N1CCCC1"
7.8 µg/mL

Please answer likewise for "CCCNC(=O)c1nc(-c2ccccc2)c2c(C(F)(F)F)cc(-c3ccccc3)nc2n1"
15.6 µg/mL

Please answer likewise for "O=C(NCc1ccccc1)c1nc(-c2ccccc2)c2c(C(F)(F)F)cc(-c3ccccc3)nc2n1"
31.2 µg/mL

----------
- System: Staphylococcus aureus
- method: Antibacterial activity against Staphylococcus aureus MTCC 96 after 24 hrs by well diffusion method
- Type: functional
- condition_details: MTCC 96, 24 h
Below, each entry is listed alongside its reported MIC.
A number alone suffices; assume µg/mL.

Solved entries:
O=C(NCc1ccccc1)c1nc(-c2ccccc2)c2c(C(F)(F)F)cc(-c3ccccc3)nc2n1: 31.2
COc1ccc(-c2nc(C(=O)N3CCN(C)CC3)nc3nc(-c4ccccc4)cc(C(F)(F)F)c23)cc1: 7.8
O=C(c1nc(-c2ccccc2)c2c(C(F)(F)F)cc(-c3ccccc3)nc2n1)N1CCN(CCO)CC1: 7.8

Provide the documented MIC with Staphylococcus aureus as the system for O=C(O)c1cn(C2CC2)c2cc(N3CCNCC3)c(F)cc2c1=O [CIPROFLOXACIN]
0.9

Please answer likewise for "O=C(NCc1ccco1)c1nc(-c2ccccc2)c2c(C(F)(F)F)cc(-c3ccccc3)nc2n1"
7.8

Please answer likewise for "CN1CCN(C(=O)c2nc(-c3ccccc3)c3c(C(F)(F)F)cc(-c4ccccc4)nc3n2)CC1"
7.8

Please answer likewise for "O=C(NCCO)c1nc(-c2ccccc2)c2c(C(F)(F)F)cc(-c3ccccc3)nc2n1"
31.2

Please answer likewise for "COc1ccc(-c2nc(C(=O)NC3CCCCC3)nc3nc(-c4ccccc4)cc(C(F)(F)F)c23)cc1"
7.8

----------
- Test system: [Candida] aaseri
- method: Fungicidal activity against Candida aaseri MTCC 1962 incubated for 24 hrs followed by transfer of microbial suspension to Sabouraud dextrose agar plates and measured after 24 hrs post transfer
- Format: functional
- condition_details: Yamadazyma aaseri, MTCC 1962, 24 h
observed_property: MFC
Answer format: value, then unit.

Solved entries:
O=C(c1nc(-c2ccccc2)c2c(C(F)(F)F)cc(-c3ccccc3)nc2n1)N1CCN(CCO)CC1: 62.5 mg/L
CN1CCN(C(=O)c2nc(-c3ccccc3)c3c(C(F)(F)F)cc(-c4ccccc4)nc3n2)CC1: 15.6 mg/L
O=C(NCCO)c1nc(-c2ccccc2)c2c(C(F)(F)F)cc(-c3ccccc3)nc2n1: 31.2 mg/L
CCCNC(=O)c1nc(-c2ccccc2)c2c(C(F)(F)F)cc(-c3ccccc3)nc2n1: 15.6 mg/L

Kindly review the next compound as well.
Provide the documented MFC with [Candida] aaseri as the system for Clc1ccc(COC(Cn2ccnc2)c2ccc(Cl)cc2Cl)c(Cl)c1 (stereo not drawn)
15.6 mg/L

----------
Below, each entry is listed alongside its reported MBC.
- Tested on: Staphylococcus aureus
- method: Bactericidal activity against Staphylococcus aureus MLS16 MTCC 2940 incubated for 24 hrs followed by transfer of microbial suspension to Mueller Hinton agar plates and measured after 24 hrs post transfer
- Type: functional
- condition_details: MLS16 MTCC 2940, 24 h
A number alone suffices; assume µg/mL.

COc1ccc(-c2nc(C(=O)N3CCN(C)CC3)nc3nc(-c4ccccc4)cc(C(F)(F)F)c23)cc1: 15.6
O=C(c1nc(-c2ccccc2)c2c(C(F)(F)F)cc(-c3ccccc3)nc2n1)N1CCN(CCO)CC1: 31.2
CN1CCN(C(=O)c2nc(-c3ccccc3)c3c(C(F)(F)F)cc(-c4ccccc4)nc3n2)CC1: 31.2

What does the data say about its MBC? Entry: "O=C(O)c1cn(C2CC2)c2cc(N3CCNCC3)c(F)cc2c1=O"
1.17

----------
- Test system: Pichia kudriavzevii
- method: Antifungal activity against Candida krusei MTCC 3020 after 24 hrs by well diffusion method
- Assay type: functional
- condition_details: MTCC 3020, 24 h
observed_property: MIC (µg/mL)
A number alone suffices; assume µg/mL.

Solved entries:
CCCNC(=O)c1nc(-c2ccccc2)c2c(C(F)(F)F)cc(-c3ccccc3)nc2n1: 15.6
O=C(NCc1ccccc1)c1nc(-c2ccccc2)c2c(C(F)(F)F)cc(-c3ccccc3)nc2n1: 15.6

What does the data say about its MIC? Entry: Clc1ccc(COC(Cn2ccnc2)c2ccc(Cl)cc2Cl)c(Cl)c1 (centres undefined)
7.8

Please answer likewise for "O=C(NCCO)c1nc(-c2ccccc2)c2c(C(F)(F)F)cc(-c3ccccc3)nc2n1"
31.2

----------
- System: Pichia sporocuriosa
- method: Fungicidal activity against Issatchenkia hanoiensis MTCC 4755 incubated for 24 hrs followed by transfer of microbial suspension to Sabouraud dextrose agar plates and measured after 24 hrs post transfer
- Type: functional
- condition_details: MTCC 4755, 24 h
Below, each entry is listed alongside its reported MFC.
A number alone suffices; assume µg/mL.

O=C(NCCO)c1nc(-c2ccccc2)c2c(C(F)(F)F)cc(-c3ccccc3)nc2n1: 15.6
COc1ccc(-c2nc(C(=O)N3CCN(C)CC3)nc3nc(-c4ccccc4)cc(C(F)(F)F)c23)cc1: 15.6
CCCNC(=O)c1nc(-c2ccccc2)c2c(C(F)(F)F)cc(-c3ccccc3)nc2n1: 62.5
CN1CCN(C(=O)c2nc(-c3ccccc3)c3c(C(F)(F)F)cc(-c4ccccc4)nc3n2)CC1: 31.2
O=C(NCc1ccccc1)c1nc(-c2ccccc2)c2c(C(F)(F)F)cc(-c3ccccc3)nc2n1: 62.5
Clc1ccc(COC(Cn2ccnc2)c2ccc(Cl)cc2Cl)c(Cl)c1 (stereo not drawn) [MICONAZOLE]: 15.6
O=C(c1nc(-c2ccccc2)c2c(C(F)(F)F)cc(-c3ccccc3)nc2n1)N1CCCC1: 62.5

Kindly review the next molecule as well.
Provide the documented MFC with Pichia sporocuriosa as the system for "O=C(c1nc(-c2ccccc2)c2c(C(F)(F)F)cc(-c3ccccc3)nc2n1)N1CCN(CCO)CC1"
31.2

Measured values drawn from ChEMBL document CHEMBL4219190 for this set.
